Measured koff accompanies every entry in the list below.
# SYSTEM NAME: T1, recombinant human C5 (human, UniProt P01031 20-1676)
# T1 construct: The same entry is used here for C5 in normal human serum in the functional rows; also called hC5; rhC5
# PROTOCOL TEXT: SPR (BIACORE T200), antibody captured by ProA/G, recombinant human C5 injected, 37 degrees C, pH5.8; pH 5.8
READOUT KIND: koff

[
  {
    "BINDER": "CFA0672 (antibody, V domains shown) VH: QSVEESGGRLVTPGTPLTLTCTASGFSLSGNAINWVRQAPGKGLEWIGCIYTGSDTTYYATWAKGRFTISKTSTTVDLKIASPTTEDTATYFCARGSGLWGPGTLVTVSS VL: DVVMTQTPASVSAPVGGTVTIKCQASQNIYSLLAWYQQKPGQPPKLLIYHTSDLASGVPSRFRGSGSGTEFTLTISDLECADAATYYCQCTAYGSSDVGGTFGGGTTVVVE",
    "READOUT KIND": "koff",
    "VALUE MEASURED": "0.00978 s⁻¹"
  },
  {
    "BINDER": "CFA0330 (antibody, V domains shown) VH: QSLEESGGDLVEPGASLTLTCTASGFSWNSGYDMCWVRQAPGKGLEWIACIYTGSSANTAYANWAKGRFTISKTSSTTVTLQMTGLTAADTATYFCARHDDYFFDLWGPGTLVTVSS VL: DVVMTQTPASVSESVGGTVTINCQASQSIGNNLAWYQQKPGQPPKLLIYDASNLASGVPSRFKGSRSGTEPTLTNTLTISGVQCADVATYYCQSGWYGNSYVAAFGGGTEVVVKR",
    "READOUT KIND": "koff",
    "VALUE MEASURED": "0.000224 s⁻¹"
  },
  {
    "BINDER": "CFA0675 (antibody, V domains shown) VH: QSVEESGGRLVTPGTPLTLTCTVSGFSLSTYAMGWVRQAPGKGLEWIGTIDTGDNSFYANWAKGRFTISRTSTTVDLKITSPTAEDTATYFCARNDGSVYNLFNLWGPGTLVTVSS VL: DVVMTQTPASVSAAVGGTVTIKCQASENIYSALSWYQQKPGLRPRLLIYYASTLASGVPSRFKGSRSGTEFTLTISDLECADAASYYCQQYYDINSVDNTFGGGTKVVVE",
    "READOUT KIND": "koff",
    "VALUE MEASURED": "0.00661 s⁻¹"
  }
]
